These measurements were taken from PubChem BioAssay AID844.

# Tested on: MRP1 cells, doxorubicin viability shift, 10 uM compound
# Test details: viability protection against doxorubicin, MRP-1 line – cell-based, doxorubicin EC50 shift, dose response (AID 844)
Calls of active or inactive are those of the source. How the calls were made is not given here.
Your reply should match one of these outcome classes. active, inactive

# Compound, Tested on, Discrete label
measured = [
    ("Cc1nnc(NC(=O)c2ccco2)s1", "MRP1 cells, doxorubicin viability shift, 10 uM compound", "inactive"),
    ("COc1cccc(/C=N/NC(=O)C(C)n2nc(C)c([N+](=O)[O-])c2C)c1O (stereo not given)", "MRP1 cells, doxorubicin viability shift, 10 uM compound", "inactive"),
    ("O=C(O)/C=C\\C(=O)NC1CCCCC1", "MRP1 cells, doxorubicin viability shift, 10 uM compound", "inactive"),
]

Query: # lookup: test call for CCCCCCn1c(O)c(/C=C2\C=NN=C2c2ccccc2)sc1=S
Result: inactive

Query: # lookup: test call for COc1ccc(C(=O)NCc2ccc3c(c2)OCO3)cc1S(=O)(=O)N(C)Cc1ccccc1
Result: inactive

----------
# Test system: MRP1 cells, doxorubicin viability shift, 10 uM compound
# Test details: viability protection against doxorubicin, MRP-1 line – cell-based, doxorubicin EC50 shift, dose response (AID 844)
The source made the active and inactive calls. The rule behind the calls is not given here.
Your reply should match one of these outcome classes. 1 = active, -1 = inactive

# Molecule, Tested on, Discrete label
records = [
    ("CCCOC(=S)NC(=O)c1sc2ccccc2c1Cl", "MRP1 cells, doxorubicin viability shift, 10 uM compound", -1),
    ("Cc1oc(C(=O)Nc2ccc(C(=O)O)cc2)cc1COc1ccccc1", "MRP1 cells, doxorubicin viability shift, 10 uM compound", -1),
    ("O=C(CSc1nccn1-c1cccc(Cl)c1)Nc1ccc2c(c1)OCCO2", "MRP1 cells, doxorubicin viability shift, 10 uM compound", -1),
    ("CC(C)Cc1nnc(NC(=O)CSc2ncn[nH]2)s1", "MRP1 cells, doxorubicin viability shift, 10 uM compound", -1),
    ("Cc1ccc(S(=O)(=O)N2CCC(C(=O)N[C@@H](C)C(=O)NC3CCCCC3)CC2)cc1", "MRP1 cells, doxorubicin viability shift, 10 uM compound", -1),
    ("COc1ccc(C2C(C(=O)Nc3cccc(C)n3)CCC(=O)N2c2ccc(OC)cc2)cc1 (centres undefined)", "MRP1 cells, doxorubicin viability shift, 10 uM compound", -1),
    ("Cn1cc(Br)c(C(=O)NNC(=O)c2ccc(Cl)cc2)n1", "MRP1 cells, doxorubicin viability shift, 10 uM compound", -1),
    ("O=C(CCN1C(=O)/C(=C/c2ccccc2)SC1=S)NNC(=O)c1cccnc1", "MRP1 cells, doxorubicin viability shift, 10 uM compound", -1),
    ("Oc1c(C(c2cccs2)N2CCN(c3ccc(F)cc3)CC2)sc2ncnn12 (centres undefined)", "MRP1 cells, doxorubicin viability shift, 10 uM compound", -1),
    ("COc1ccc(-n2ncc3c(N4CCCc5ccccc54)ncnc32)cc1", "MRP1 cells, doxorubicin viability shift, 10 uM compound", -1),
]

Query: # lookup: test call for CCOC(=O)C1=C(C)N=C2SC(CC)C(=O)N2C1c1cccc(F)c1 (centres undefined)
Result: -1

Query: # lookup: test call for C=CCOc1ccc(CNc2ccc(NC(=O)CC(C)C)cc2)cc1OC
Result: -1

Query: # lookup: test call for S=C(N/N=C/c1ccc(Cl)cc1)N1CCOCC1
Result: -1

Query: # lookup: test call for CCCCN(C(=O)Cc1cccs1)c1nnc(-c2cccnc2)s1
Result: -1

Query: # lookup: test call for CCN(CC)S(=O)(=O)c1cccc(NC(=O)CCSc2ccc(Cl)cc2)c1
Result: -1

Query: # lookup: test call for COc1ccc(S(=O)(=O)N(CC(=O)N2CCN(c3ccccc3OC)CC2)c2ccccc2)cc1
Result: -1

Query: # lookup: test call for Cn1nccc1CNC(=O)c1ccnn1C
Result: -1

Query: # lookup: test call for O=C(NC(=S)Nc1ccccc1N1CCCCC1)c1ccc(-c2cccc([N+](=O)[O-])c2)o1
Result: -1

Query: # lookup: test call for Cc1cccc(Cc2cnc(NC(=O)CN3C(=O)/C(=C/c4ccccc4)SC3=S)s2)c1
Result: 1

Query: # lookup: test call for CC(C)(CNC(=O)/C=C/c1ccc(F)cc1)CNC(=O)/C=C/c1ccc(F)cc1
Result: -1

Query: # lookup: test call for CCC1(C)Cc2c(sc3nnn(Cc4ccccc4Cl)c(=O)c23)CO1 (centres undefined)
Result: -1

Query: # lookup: test call for CCN(Cc1ccccc1)C(=O)CSc1nc(C)cc(C)c1C#N
Result: -1

Query: # lookup: test call for O=C(c1ccco1)N1CCN(c2nc(C3CC3)nc3c2nnn3Cc2ccccc2Cl)CC1
Result: -1

Query: # lookup: test call for CCC(Sc1nc2ccccc2s1)C(=O)Nc1nnc(C)s1 (centres undefined)
Result: -1

Query: # lookup: test call for CCc1nnc(NC(=O)c2ccc(S(=O)(=O)N3CCCCCC3)cc2)s1
Result: -1

----------
# Tested on: MRP1 cells, doxorubicin viability shift, 10 uM compound
# Test details: viability protection against doxorubicin, MRP-1 line – cell-based, doxorubicin EC50 shift, dose response (AID 844)
Calls of active or inactive are those of the source. How the calls were made is not given here.
Your reply should match one of these outcome classes. Y for active, N for inactive

# Compound, Discrete label
records = [
    ("CC1=NN(c2ccc(C)cc2C)C(=O)C1C(c1ccccc1O)C1C(=O)N(c2ccc(C)cc2C)N=C1C (stereo not given)", "N"),
    ("O=C1CSC(=NC(=O)c2ccccc2)N1", "N"),
    ("COc1ccc(CNc2nc(NCc3ccc(OC)cc3)n(S(C)(=O)=O)n2)cc1", "N"),
    ("COc1ccccc1-c1cc(C(=O)NC(C)c2ccccc2)no1 (stereo not given)", "N"),
    ("CCOC(=O)N1CCN(C(=O)CSc2nnc(COc3ccc(Cl)cc3)o2)CC1", "N"),
    ("Cc1ccc(COc2cccc3c2CCN(Cc2ccc(F)cc2)C3=O)cc1", "N"),
]

Query: # lookup: test call for Cc1ccc(/C=N/NC(=O)CSCc2ccc(Cl)cc2)cc1
Result: N

Query: # lookup: test call for COc1cccc(/C=N/NC(=O)CNC(=O)C2COc3ccccc3O2)c1O (stereo not given)
Result: N

Query: # lookup: test call for N#Cc1nc(COc2cccc(Cl)c2)oc1N1CCCC1
Result: N

Query: # lookup: test call for O=c1nc2s/c(=C\c3ccc(-c4ccccc4[N+](=O)[O-])o3)c(=O)n2nc1-c1ccccc1
Result: N

Query: # lookup: test call for O=C(CSc1ncn[nH]1)Nc1nnc(-c2ccccc2)s1
Result: N

Query: # lookup: test call for COc1ccc(NC(=O)CC2C(=O)N(c3ccc(Cl)cc3)C(=S)N2NC(=O)c2cccc(F)c2)cc1 (stereo not given)
Result: N

Query: # lookup: test call for Cc1cccc(N2CCN(C(=O)Cc3ccc(Br)cc3)CC2)c1C
Result: N

Query: # lookup: test call for O=C(COC(=O)c1c(Cl)cccc1Cl)Nc1cc(Cl)ccc1Oc1ccccc1
Result: N

Query: # lookup: test call for Clc1ccc(OCc2nnnn2-c2ccccc2)cc1
Result: N

Query: # lookup: test call for COc1ccc2cc(-c3cc(C(=O)O)c4ccccc4n3)ccc2c1
Result: N

Query: # lookup: test call for O=C(Nc1nnc(N2CCCCCC2)s1)c1cc(-c2ccc(Br)cc2)on1
Result: N

Query: # lookup: test call for Cc1nc(NC(=S)NC(=O)c2ccccc2)sc1C(=O)N(C)C
Result: N

Query: # lookup: test call for COC(=O)c1cn(NC(=O)c2cccnc2)c(=O)c2ccccc12
Result: N

Query: # lookup: test call for Cc1cc(C)n2nc(C(=O)Nc3nnc(C4CC4)s3)nc2n1
Result: N

Query: # lookup: test call for CCOC(=O)CN(C(=O)CSc1nnc(COc2ccc(OC)cc2)n1C)c1ccccc1
Result: N

Query: # lookup: test call for O=C1C(Cc2cccc([N+](=O)[O-])c2)SC(=Nc2ccccc2)N1c1ccccc1 (stereo not given)
Result: N

Query: # lookup: test call for CC(C)CCOc1ncnc2c1sc1nc3c(cc12)CSC(C)(C)C3
Result: N

Query: # lookup: test call for COc1cccc(C2CC(c3ccc(Cl)cc3)Nc3nc(N)nn32)c1 (stereo not given)
Result: N

Query: # lookup: test call for COC(=O)N/N=C/c1ccc(-c2ccc(Cl)c(Cl)c2)o1
Result: N

----------
# Tested on: MRP1 cells, doxorubicin viability shift, 10 uM compound
# Test details: viability protection against doxorubicin, MRP-1 line – cell-based, doxorubicin EC50 shift, dose response (AID 844)
# strict inequality: fold increase in Dox EC50 < 0.8 yields Satisfied, everything else yields Not satisfied

# Compound, Tested on, Discrete label
data = [
    ("N=c1oc2c3c4c(cc2cc1C(=O)Nc1ccccc1)CCCN4CCC3", "MRP1 cells, doxorubicin viability shift, 10 uM compound", "Satisfied"),
    ("COc1ccc(CNc2nc3c(c(=O)n(Cc4ccc(Cl)cc4)c(=O)n3C)n2C)cc1", "MRP1 cells, doxorubicin viability shift, 10 uM compound", "Not satisfied"),
    ("O=C(c1ccccc1)C(Sc1ncn[nH]1)c1ccccc1 (stereo not given)", "MRP1 cells, doxorubicin viability shift, 10 uM compound", "Satisfied"),
    ("Cc1ccc(C)c2[nH]c(=O)c(CN(Cc3ccco3)S(=O)(=O)c3ccc4c(c3)OCCO4)cc12", "MRP1 cells, doxorubicin viability shift, 10 uM compound", "Not satisfied"),
]

Moving on to another compound below.
Query: Please determine if Cn1nc(C(F)(F)F)c2cc(NC(=O)OCc3ccc(C(C)(C)C)cc3)sc21 is below 0.8 in terms of fold increase in Dox EC50.
Result: Satisfied
